- SYSTEM: Serine--tRNA ligase (Escherichia coli (strain K12), UniProt P0A8L1)
- Sequence (P0A8L1 whole entry): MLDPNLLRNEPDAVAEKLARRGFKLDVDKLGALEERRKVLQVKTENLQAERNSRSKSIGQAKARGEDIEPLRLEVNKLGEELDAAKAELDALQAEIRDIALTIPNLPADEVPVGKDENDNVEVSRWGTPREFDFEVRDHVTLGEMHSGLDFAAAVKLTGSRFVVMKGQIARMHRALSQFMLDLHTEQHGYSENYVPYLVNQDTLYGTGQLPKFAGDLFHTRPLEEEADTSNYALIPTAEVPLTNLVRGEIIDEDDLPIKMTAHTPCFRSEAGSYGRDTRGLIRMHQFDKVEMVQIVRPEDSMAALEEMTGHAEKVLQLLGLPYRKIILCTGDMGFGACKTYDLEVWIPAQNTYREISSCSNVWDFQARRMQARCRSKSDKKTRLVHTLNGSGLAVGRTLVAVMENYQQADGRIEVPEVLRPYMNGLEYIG
- EXPERIMENT SUMMARY: Binding affinity to C-terminal His10-tagged Escherichia coli B ER2560 SerRS expressed in Lemo21(DE3) SerRS assessed as affinity constant for second binding site by isothermal titration calorimetry
MEASURED PROPERTY: Kd (nM)
All answers are understood in nM, so give the number only.

Exam item: // Kd lookup, key: `Nc1nc(-c2cccnc2)nc2c1ncn2[C@@H]1O[C@H](COS(=O)(=O)NC(=O)[C@@H](N)CO)[C@@H](O)[C@H]1O`
Marked response: 1920

###

- SYSTEM: Serine--tRNA ligase (Escherichia coli (strain K12), UniProt P0A8L1)
- EXPERIMENT SUMMARY: Binding affinity to C-terminal His10-tagged Escherichia coli B ER2560 SerRS expressed in Lemo21(DE3) SerRS assessed as dissociation constant by isothermal titration calorimetry
MEASURED PROPERTY: pKd
Recall that pKd is obtained by taking minus log10 of the concentration measured in molar.

Exam item: Sample `Nc1ncnc2c1ncn2[C@@H]1O[C@H](COS(=O)(=O)NC(=O)[C@@H](N)CO)[C@@H](O)[C@H]1O` — what was its pKd?
Marked response: 8.90

###

- SYSTEM: Serine--tRNA ligase (Staphylococcus aureus (strain NCTC 8325 / PS 47), UniProt P95689)
- Sequence (P95689 whole entry): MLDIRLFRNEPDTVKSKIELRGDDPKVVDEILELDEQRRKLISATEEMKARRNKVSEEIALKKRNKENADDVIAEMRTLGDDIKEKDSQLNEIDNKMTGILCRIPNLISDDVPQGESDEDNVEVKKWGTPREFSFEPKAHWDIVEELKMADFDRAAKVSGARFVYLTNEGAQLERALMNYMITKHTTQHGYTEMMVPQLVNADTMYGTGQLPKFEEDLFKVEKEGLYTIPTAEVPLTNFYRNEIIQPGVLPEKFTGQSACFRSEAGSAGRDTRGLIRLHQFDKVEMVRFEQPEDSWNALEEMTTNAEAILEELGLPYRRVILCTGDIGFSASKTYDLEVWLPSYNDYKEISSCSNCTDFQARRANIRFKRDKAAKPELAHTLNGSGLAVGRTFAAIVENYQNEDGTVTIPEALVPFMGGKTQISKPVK
- EXPERIMENT SUMMARY: Inhibition of C-terminal His10-tagged Staphylococcus aureus seg50 SerRS expressed in Lemo21(DE3) using Ap4A as substrate in presence of serine by leuconostoc mesenteroides hexokinase/glucose 6-Phosphate dehydrogenase coupled UV-visible spectrophotometry
MEASURED PROPERTY: IC50 (µM)
Give a bare numeral; the unit µM is implied.

Exam item: What measured IC50 is associated with `CC1(C)O[C@@H]2[C@H](O1)[C@@H](CO)O[C@H]2n1cnc2c(N)nc(I)nc21` on Serine--tRNA ligase (Staphylococcus aureus (strain NCTC 8325 / PS 47), UniProt P95689)?
Marked response: 231

###

- SYSTEM: Serine--tRNA ligase (Escherichia coli (strain K12))
- EXPERIMENT SUMMARY: Binding affinity to C-terminal His10-tagged Escherichia coli B ER2560 SerRS expressed in Lemo21(DE3) SerRS assessed as affinity constant for first binding site by isothermal titration calorimetry
MEASURED PROPERTY: pKd
Note on pKd: it is the negative log10 of concentration, concentration in mol/L.

Exam item: Returns the measured pKd for the input molecule. Input: `Nc1nc(-c2cccnc2)nc2c1ncn2[C@@H]1O[C@H](COS(=O)(=O)NC(=O)[C@@H](N)CO)[C@@H](O)[C@H]1O`
Marked response: 6.54

###

- SYSTEM: Serine--tRNA ligase (Escherichia coli (strain K12))
- EXPERIMENT SUMMARY: Inhibition of C-terminal His10-tagged Escherichia coli B ER2560 SerRS expressed in Lemo21(DE3) using Ap4A as substrate in presence of serine by leuconostoc mesenteroides hexokinase/glucose 6-Phosphate dehydrogenase coupled UV-visible spectrophotometry
MEASURED PROPERTY: pIC50
When answering, recall that pIC50 equals minus log10 of the concentration in mol/L, and write that number alone.

Exam item: Which pIC50 value is on record for `CC1(C)O[C@@H]2[C@H](O1)[C@@H](CO)O[C@H]2n1cnc2c(N)nc(I)nc21` ?
Marked response: 3.55
